Origin of values: the NIST ThermoML archive (doi:10.1016/j.jct.2013.09.007)

# experiment description: activity coefficient (dimensionless); of the first substance listed, at infinite dilution; xn = mol fraction of the nth substance listed
# experimental parameters: 328.15 K; 101 kPa; Liquid; Chromatography; x1 = 0
Lab note: compare activity coefficient against 6. Equal or greater, write yes. Smaller, write no.

Q: Please check the record C=CCCCCCCCC [1-decene] + CCCC[n+]1cccc(C)c1.N#C[N-]C#N and state if its activity coefficient is at or above 6.
Ans: yes

Q: Please check the record CCOCC [diethyl ether] + CCCC[n+]1cccc(C)c1.N#C[N-]C#N and state if its activity coefficient is at or above 6.
Ans: yes

Q: Please check the record C1CCOC1 [tetrahydrofuran] + CCCC[n+]1cccc(C)c1.N#C[N-]C#N and state if its activity coefficient is at or above 6.
Ans: no

Q: Please check the record CCOC(C)(C)C [2-ethoxy-2-methylpropane] + CCCC[n+]1cccc(C)c1.N#C[N-]C#N and state if its activity coefficient is at or above 6.
Ans: yes

Q: Please check the record C#CCCCC [1-hexyne] + CCCC[n+]1cccc(C)c1.N#C[N-]C#N and state if its activity coefficient is at or above 6.
Ans: no

Q: Please check the record C#CCCC [1-pentyne] + CCCC[n+]1cccc(C)c1.N#C[N-]C#N and state if its activity coefficient is at or above 6.
Ans: no

Q: Please check the record CC(C)=O [acetone] + CCCC[n+]1cccc(C)c1.N#C[N-]C#N and state if its activity coefficient is at or above 6.
Ans: no

Q: Please check the record C=CCCCCC [1-heptene] + CCCC[n+]1cccc(C)c1.N#C[N-]C#N and state if its activity coefficient is at or above 6.
Ans: yes

Q: Please check the record C1CCCC1 [cyclopentane] + CCCC[n+]1cccc(C)c1.N#C[N-]C#N and state if its activity coefficient is at or above 6.
Ans: yes

###

# experiment description: activity coefficient (dimensionless); of the first substance listed, at infinite dilution; xn = mol fraction of the nth substance listed
# experimental parameters: 368.15 K; 101 kPa; Liquid; Chromatography; x1 = 0
Lab note: compare activity coefficient against 20. Equal or greater, write condition met. Smaller, write condition not met.

Q: Please check the record CCCOCCC [dipropyl ether] + CCCC[n+]1cccc(C)c1.N#C[N-]C#N and state if its activity coefficient is at or above 20.
Ans: condition not met

Q: Please check the record C1CCCC1 [cyclopentane] + CCCC[n+]1cccc(C)c1.N#C[N-]C#N and state if its activity coefficient is at or above 20.
Ans: condition not met

Q: Please check the record CCCCCCCCCC [decane] + CCCC[n+]1cccc(C)c1.N#C[N-]C#N and state if its activity coefficient is at or above 20.
Ans: condition met

Q: Please check the record CCCCO [butan-1-ol] + CCCC[n+]1cccc(C)c1.N#C[N-]C#N and state if its activity coefficient is at or above 20.
Ans: condition not met

Q: Please check the record CCc1ccccc1 [ethylbenzene] + CCCC[n+]1cccc(C)c1.N#C[N-]C#N and state if its activity coefficient is at or above 20.
Ans: condition not met

###

# experiment description: activity coefficient (dimensionless); of the first substance listed, at infinite dilution; xn = mol fraction of the nth substance listed
# experimental parameters: 348.15 K; 101 kPa; Liquid; Chromatography; x1 = 0
Lab note: compare activity coefficient against 6. Equal or greater, write TRUE. Smaller, write FALSE.

Q: Please check the record CCCCCCCCCC [decane] + CCCC[n+]1cccc(C)c1.N#C[N-]C#N and state if its activity coefficient is at or above 6.
Ans: TRUE

Q: Please check the record CCOCC [diethyl ether] + CCCC[n+]1cccc(C)c1.N#C[N-]C#N and state if its activity coefficient is at or above 6.
Ans: TRUE

Q: Please check the record CCC(=O)CC [pentan-3-one] + CCCC[n+]1cccc(C)c1.N#C[N-]C#N and state if its activity coefficient is at or above 6.
Ans: FALSE

Q: Please check the record C#CCCCCCC [1-octyne] + CCCC[n+]1cccc(C)c1.N#C[N-]C#N and state if its activity coefficient is at or above 6.
Ans: TRUE

Q: Please check the record CCCCCCC [heptane] + CCCC[n+]1cccc(C)c1.N#C[N-]C#N and state if its activity coefficient is at or above 6.
Ans: TRUE

Q: Please check the record CCCCO [butan-1-ol] + CCCC[n+]1cccc(C)c1.N#C[N-]C#N and state if its activity coefficient is at or above 6.
Ans: FALSE

Q: Please check the record C1CCCCCC1 [cycloheptane] + CCCC[n+]1cccc(C)c1.N#C[N-]C#N and state if its activity coefficient is at or above 6.
Ans: TRUE

Q: Please check the record C1CCCCCCC1 [cyclooctane] + CCCC[n+]1cccc(C)c1.N#C[N-]C#N and state if its activity coefficient is at or above 6.
Ans: TRUE

Q: Please check the record Cc1ccc(C)cc1 [1,4-dimethylbenzene] + CCCC[n+]1cccc(C)c1.N#C[N-]C#N and state if its activity coefficient is at or above 6.
Ans: FALSE

Q: Please check the record C#CCCCCC [1-heptyne] + CCCC[n+]1cccc(C)c1.N#C[N-]C#N and state if its activity coefficient is at or above 6.
Ans: TRUE

Q: Please check the record CC(C)CC(C)(C)C [2,2,4-trimethylpentane] + CCCC[n+]1cccc(C)c1.N#C[N-]C#N and state if its activity coefficient is at or above 6.
Ans: TRUE

Q: Please check the record CCOC(C)(C)C [2-ethoxy-2-methylpropane] + CCCC[n+]1cccc(C)c1.N#C[N-]C#N and state if its activity coefficient is at or above 6.
Ans: TRUE

Q: Please check the record C1CCCC1 [cyclopentane] + CCCC[n+]1cccc(C)c1.N#C[N-]C#N and state if its activity coefficient is at or above 6.
Ans: TRUE

Q: Please check the record CCCCCC [hexane] + CCCC[n+]1cccc(C)c1.N#C[N-]C#N and state if its activity coefficient is at or above 6.
Ans: TRUE

Q: Please check the record CCCO [propan-1-ol] + CCCC[n+]1cccc(C)c1.N#C[N-]C#N and state if its activity coefficient is at or above 6.
Ans: FALSE

Q: Please check the record C=CCCCCCC [oct-1-ene] + CCCC[n+]1cccc(C)c1.N#C[N-]C#N and state if its activity coefficient is at or above 6.
Ans: TRUE

Q: Please check the record C=CCCCCCCCC [1-decene] + CCCC[n+]1cccc(C)c1.N#C[N-]C#N and state if its activity coefficient is at or above 6.
Ans: TRUE

Q: Please check the record O [water] + CCCC[n+]1cccc(C)c1.N#C[N-]C#N and state if its activity coefficient is at or above 6.
Ans: FALSE

Q: Please check the record O=C1CCCCC1 [cyclohexanone] + CCCC[n+]1cccc(C)c1.N#C[N-]C#N and state if its activity coefficient is at or above 6.
Ans: FALSE

###

# experiment description: activity coefficient (dimensionless); of the first substance listed, at infinite dilution; xn = mol fraction of the nth substance listed
# experimental parameters: 318.15 K; 101 kPa; Liquid; Chromatography; x1 = 0
measured parameter: activity coefficient
Just the number, please, no unit attached.

// sample CC(C)CC(C)(C)C [2,2,4-trimethylpentane] + CCCC[n+]1cccc(C)c1.N#C[N-]C#N , its activity coefficient was 93.3

// sample COC(C)(C)C [2-methoxy-2-methylpropane] + CCCC[n+]1cccc(C)c1.N#C[N-]C#N , its activity coefficient was 6.77

// sample C#CCCCCC [1-heptyne] + CCCC[n+]1cccc(C)c1.N#C[N-]C#N , its activity coefficient was 6.27

// sample CCCCCCC [heptane] + CCCC[n+]1cccc(C)c1.N#C[N-]C#N , its activity coefficient was 75.7

// sample C1=CCCCC1 [cyclohexene] + CCCC[n+]1cccc(C)c1.N#C[N-]C#N , its activity coefficient was 8.87

// sample C#CCCCC [1-hexyne] + CCCC[n+]1cccc(C)c1.N#C[N-]C#N , its activity coefficient was 4.25

// sample C1CCCC1 [cyclopentane] + CCCC[n+]1cccc(C)c1.N#C[N-]C#N , its activity coefficient was 14.2

// sample c1ccsc1 [thiophene] + CCCC[n+]1cccc(C)c1.N#C[N-]C#N , its activity coefficient was 0.844

// sample C1CCCCCC1 [cycloheptane] + CCCC[n+]1cccc(C)c1.N#C[N-]C#N , its activity coefficient was 25.2

// sample CCC(C)(C)OC [2-methoxy-2-methylbutane] + CCCC[n+]1cccc(C)c1.N#C[N-]C#N , its activity coefficient was 9.71

// sample CCOCC [diethyl ether] + CCCC[n+]1cccc(C)c1.N#C[N-]C#N , its activity coefficient was 6.33

###

Give measured activity coefficient for each item. Keep answers brief.
# experiment description: activity coefficient (dimensionless); of the first substance listed, at infinite dilution; xn = mol fraction of the nth substance listed
# experimental parameters: 368.15 K; 101 kPa; Liquid; Chromatography; x1 = 0
Just the number, please, no unit attached.

// sample CC1CCCCC1 [methylcyclohexane] + CCCC[n+]1cccc(C)c1.N#C[N-]C#N , its activity coefficient was 22.6

// sample CCOC(C)(C)C [2-ethoxy-2-methylpropane] + CCCC[n+]1cccc(C)c1.N#C[N-]C#N , its activity coefficient was 15.6

// sample C#CCCCC [1-hexyne] + CCCC[n+]1cccc(C)c1.N#C[N-]C#N , its activity coefficient was 4.72

// sample C1CCOC1 [tetrahydrofuran] + CCCC[n+]1cccc(C)c1.N#C[N-]C#N , its activity coefficient was 1.53

// sample CCC(C)(C)C [2,2-dimethylbutane] + CCCC[n+]1cccc(C)c1.N#C[N-]C#N , its activity coefficient was 33.6

// sample CCO [ethanol] + CCCC[n+]1cccc(C)c1.N#C[N-]C#N , its activity coefficient was 0.537

// sample C=CCCCCCCCC [1-decene] + CCCC[n+]1cccc(C)c1.N#C[N-]C#N , its activity coefficient was 73.9

// sample CC(C)=O [acetone] + CCCC[n+]1cccc(C)c1.N#C[N-]C#N , its activity coefficient was 1.04

// sample CCC[N+](=O)[O-] [1-nitropropane] + CCCC[n+]1cccc(C)c1.N#C[N-]C#N , its activity coefficient was 1.15
